- Test system: B. corporis
- experimentSummary: Aminopeptidase activity on β-naphthylamide substrates
- Format: biochemical
- setupConditions: strain ATCC 33547; β-naphthylamine liberated after 60 minutes, 37° C.
Peptide text beside a SMILES is read from it. * marks the point of attachment. βNA = c1ccc2cc(N*)ccc2c1
attributeMeasured: Aminopeptidase activity (nmol)
Provide only the numeric value, understood in nmol.

# molecule, experimentalTarget, attributeMeasured, measuredValue
measured = [
    ("CC(C)C[C@H](N)C(=O)NCC(=O)O [Leu-Gly, Leucyl-glycine] (H-Leu-Gly-OH)", "B. corporis", "Aminopeptidase activity", 67),
    ("N=C(N)NCCC[C@H](NC(=O)CN)C(=O)O [Gly-Arg, Glycyl-arginine] (H-Gly-Arg-OH)", "B. corporis", "Aminopeptidase activity", 0),
    ("CSCCC(N)C(=O)Nc1ccc2ccccc2c1 (racemic)", "B. corporis", "Aminopeptidase activity", 0),
    ("C[C@H](N)C(=O)N[C@@H](C)C(=O)N[C@@H](Cc1ccccc1)C(=O)Nc1ccc2ccccc2c1 [Ala-Ala-Phe] (H-Ala-Ala-Phe-βNA)", "B. corporis", "Aminopeptidase activity", 0),
    ("CC(C)C[C@H](NC(=O)[C@@H]1CCCN1C(=O)CN)C(=O)Nc1ccc2ccccc2c1 [Gly-Pro-Leu] (H-Gly-Pro-Leu-βNA)", "B. corporis", "Aminopeptidase activity", 2),
]

Sample `Cl.N=C(N)NCCC[C@H](NC(=O)CNC(=O)CNC(=O)OCc1ccccc1)C(=O)Nc1ccc2ccccc2c1` — what was its Aminopeptidase activity?
1

Sample `NC(=O)[C@@H](N)CCC(=O)O` — what was its Aminopeptidase activity?
0

Sample N=C(N)NCCC[C@H](NC(=O)[C@@H](N)CCCNC(=N)N)C(=O)O [Arg-Arg, Arginyl-arginine] (H-Arg-Arg-OH) — what was its Aminopeptidase activity?
4
